- tested_on: T1, O13-bS
- T1 chain: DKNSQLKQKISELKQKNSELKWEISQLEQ
- experiment: two-hybrid library CCNG1;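 also: natural log of median RNA to DNA barcode read ratio; higher means stronger binding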
readout_type: interaction score
Answer using only a numeral; do not append any unit.

DKNSQLKQENSELEQEISELEWEISQLEQ [O1-bS] | -1.7
DKISQLKQEISELEQENSELEWENSQLEQ [O11-bS] | -0.61
DEIQQLEQKIQELEQKNQELKWKNQELEQ [4H319-bN] | -2.53
DKNSQLKQKISELKQKNSELKWEISQLEQ [O13-bS] | -1.65
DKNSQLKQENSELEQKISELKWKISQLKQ [O10-bS] | -0.797

Turning to the following binder.
// DEISQLEQKISELKQKNSELKWKNSQLKQ [O12-bS] : interaction score value = -2.21
